Listed here are molecules together with their documented inhibition at 1 µM.
- STUDY TARGET: human PHD2 (Homo sapiens (Human), UniProt Q9GZT9)
- Sequence (Q9GZT9 whole entry): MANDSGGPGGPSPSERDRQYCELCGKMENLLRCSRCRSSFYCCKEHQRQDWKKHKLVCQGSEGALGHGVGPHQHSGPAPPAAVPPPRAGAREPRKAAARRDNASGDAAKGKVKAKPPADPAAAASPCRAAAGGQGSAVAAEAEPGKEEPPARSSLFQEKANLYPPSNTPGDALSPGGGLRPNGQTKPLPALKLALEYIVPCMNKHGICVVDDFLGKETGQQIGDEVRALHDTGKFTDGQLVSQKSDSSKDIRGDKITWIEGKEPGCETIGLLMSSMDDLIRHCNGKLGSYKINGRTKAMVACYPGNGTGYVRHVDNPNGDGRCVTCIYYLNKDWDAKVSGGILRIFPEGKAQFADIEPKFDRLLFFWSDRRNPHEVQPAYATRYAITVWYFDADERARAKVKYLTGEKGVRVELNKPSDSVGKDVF
- EXPERIMENT: Test 1: human PHD2 inhibitory activity, [14C]-2-oxoglutarate to [14C]-succinic acid radiometric assay with HIF-1α peptide
- Format: biochemical
- CONDITION DETAILS: test compound's concentration 1 μM; Test 1, [14C]-2-oxoglutarate radiometric assay; read-out: Percent inhibition (% at 1 μM)
METRIC: inhibition at 1 µM (%)

MOLECULE: O=C(O)CNC(=O)C1=C(O)CC2(COC2)N(Cc2ccc(-c3ccc(C(F)(F)F)cc3)cc2)C1=O [Ex. 1-133]
RECORDED RESULT: 104
--
MOLECULE: O=C(O)CNC(=O)C1=C(O)CC2(CCC2)N(Cc2ccc(-c3ccccn3)cc2)C1=O [Ex. 1-130]
RECORDED RESULT: 89
--
MOLECULE: O=C(O)CNC(=O)C1=C(O)CCN(CCCCCc2ccccc2)C1=O [Ex. 1-30]
RECORDED RESULT: 77
--
MOLECULE: O=C(O)CNC(=O)C1=C(O)CCN(Cc2cccc3ccccc23)C1=O [Ex. 1-33]
RECORDED RESULT: 72
--
MOLECULE: O=C(O)CNC(=O)C1=C(O)C2(CCCCC2)CN(Cc2ccc(-c3ccccc3)cc2)C1=O [Ex. 1-8]
RECORDED RESULT: 54
--
MOLECULE: O=C(O)CNC(=O)C1=C(O)CCN(Cc2cccc(-c3ccccc3)c2)C1=O [Ex. 1-24]
RECORDED RESULT: 74
--
MOLECULE: Cc1nc(-c2ccccc2)oc1CN1C(=O)C(C(=O)NCC(=O)O)=C(O)CC1(C)C [Ex. 1-301]
RECORDED RESULT: 56
--
MOLECULE: O=C(O)CNC(=O)C1=C(O)CC2(CC2)N(Cc2ccc(C3CC3)cc2)C1=O [Ex. 1-266]
RECORDED RESULT: 83
--
MOLECULE: CC1(C)CC(O)=C(C(=O)NCC(=O)O)C(=O)N1Cc1ccc(OCCCC(F)(F)F)c(F)c1 [Ex. 1-201]
RECORDED RESULT: 67
--
MOLECULE: N#Cc1ccc(Oc2ccc(CN3CCC(O)=C(C(=O)NCC(=O)O)C3=O)cn2)cc1 [Ex. 1-225]
RECORDED RESULT: 100
--
MOLECULE: CC(C)(C)c1ccc(-c2ccc(CN3C(=O)C(C(=O)NCC(=O)O)=C(O)CC34COC4)cc2)cc1 [Ex. 1-138]
RECORDED RESULT: 83
--
MOLECULE: O=C(O)CNC(=O)C1=C(O)C2(CCCCC2)CN(Cc2ccc(-c3ccccn3)cc2)C1=O [Ex. 1-101]
RECORDED RESULT: 60
--
MOLECULE: O=C(O)CNC(=O)C1=C(O)CCN(Cc2ccc(C(F)(F)F)c(C3CCC3)c2)C1=O [Ex. 1-245]
RECORDED RESULT: 80
--
MOLECULE: CC1(C)CC(O)=C(C(=O)NCC(=O)O)C(=O)N1CC1CCC(c2ccccc2)CC1 (centres unmarked) [Ex. 1-115]
RECORDED RESULT: 49
--
MOLECULE: O=C(O)CNC(=O)C1=C(O)CCN(Cc2ccc(Oc3ccc(C(F)(F)F)cc3)nc2)C1=O [Ex. 1-254]
RECORDED RESULT: 103
--
MOLECULE: O=C(O)CNC(=O)C1=C(O)CC2(CCC2)N(Cc2ccc(-c3ccc(F)cc3)cc2)C1=O [Ex. 1-178]
RECORDED RESULT: 81
--
MOLECULE: O=C(O)CNC(=O)C1=C(O)C2(CCC2)CN(Cc2cnc(-c3ccccc3)s2)C1=O [Ex. 1-95]
RECORDED RESULT: 85

* * *

- STUDY TARGET: human PHD2 (Homo sapiens (Human), UniProt Q9GZT9)
- EXPERIMENT: Test 1: human PHD2 inhibitory activity, [14C]-2-oxoglutarate to [14C]-succinic acid radiometric assay with HIF-1α peptide
- Type: biochemical
- CONDITION DETAILS: test compound's concentration 1 μM; Test 1, [14C]-2-oxoglutarate radiometric assay; read-out: Percent inhibition (% at 1 μM)
Please note: True applies when inhibition at 1 µM is 70% or greater, and False applies otherwise.

MOLECULE: CC1CN(Cc2ccc(C(F)(F)F)cc2)C(=O)C(C(=O)NCC(=O)O)=C1O (stereo not drawn)
CLASS: True

MOLECULE: O=C(O)CNC(=O)C1=C(O)CCN(Cc2ccc(-c3ccc(F)cc3)cc2)C1=O
CLASS: True

MOLECULE: O=C(O)CNC(=O)C1=C(O)CCN(CCc2ccccc2)C1=O
CLASS: False

MOLECULE: COc1ccc(CN2CCC(O)=C(C(=O)NCC(=O)O)C2=O)c(OC)c1
CLASS: False

MOLECULE: Cc1nc(C)c(-c2ccc(CN3CCC(O)=C(C(=O)NCC(=O)O)C3=O)cc2)s1
CLASS: True

MOLECULE: Cc1ccc(CN2CCC(O)=C(C(=O)NCC(=O)O)C2=O)c(C)c1
CLASS: False

MOLECULE: O=C(O)CNC(=O)C1=C(O)CCN(Cc2cnc(C3CCCCC3)nc2)C1=O
CLASS: True

MOLECULE: Cc1ccc(CN2C(=O)C(C(=O)NCC(=O)O)=C(O)CC23CCCCC3)cc1
CLASS: False

* * *

Listed here are compounds together with their documented inhibition at 1 µM.
- STUDY TARGET: human PHD2 (Homo sapiens (Human))
- EXPERIMENT: Test 1: human PHD2 inhibitory activity, [14C]-2-oxoglutarate to [14C]-succinic acid radiometric assay with HIF-1α peptide
- Type: biochemical
- CONDITION DETAILS: test compound's concentration 1 μM; Test 1, [14C]-2-oxoglutarate radiometric assay; read-out: Percent inhibition (% at 1 μM)

COMPOUND: CC1CN(Cc2ccc(-c3ccccn3)cc2)C(=O)C(C(=O)NCC(=O)O)=C1O (stereo not drawn)
inhibition at 1 µM / %: 80

COMPOUND: Cc1cc(CN2C(=O)C(C(=O)NCC(=O)O)=C(O)CC2(C)C)ccc1OCC1CC1
inhibition at 1 µM / %: 65

COMPOUND: Cc1ccc(CN2CCC(O)=C(C(=O)NCC(=O)O)C2=O)cc1C(F)(F)F
inhibition at 1 µM / %: 71

COMPOUND: CC1(C)CC(O)=C(C(=O)NCC(=O)O)C(=O)N1C[C@@H]1C[C@@H]1c1ccccc1
inhibition at 1 µM / %: 47

COMPOUND: CC1(C)CC(O)=C(C(=O)NCC(=O)O)C(=O)N1Cc1ccc(C2CCC2)cc1
inhibition at 1 µM / %: 76

COMPOUND: Cc1ccc(CN2C(=O)C(C(=O)NCC(=O)O)=C(O)CC2(C)C)cc1
inhibition at 1 µM / %: 44

COMPOUND: CC1CN(Cc2ccc(Cl)cc2)C(=O)C(C(=O)NCC(=O)O)=C1O (stereo not drawn)
inhibition at 1 µM / %: 78

COMPOUND: COc1cccc(Oc2ccc(CN3CCC(O)=C(C(=O)NCC(=O)O)C3=O)cc2)c1
inhibition at 1 µM / %: 95

COMPOUND: Cc1ccc(COc2ccc(CN3CCC(O)=C(C(=O)NCC(=O)O)C3=O)cc2)cc1
inhibition at 1 µM / %: 94

* * *

- STUDY TARGET: human PHD2 (Homo sapiens (Human), UniProt Q9GZT9)
- EXPERIMENT: Test 1: human PHD2 inhibitory activity, [14C]-2-oxoglutarate to [14C]-succinic acid radiometric assay with HIF-1α peptide
- Format: biochemical
- CONDITION DETAILS: test compound's concentration 1 μM; Test 1, [14C]-2-oxoglutarate radiometric assay; read-out: Percent inhibition (% at 1 μM)
METRIC: inhibition at 1 µM (%)

MOLECULE: CC1(C)CN(Cc2ccc(OCC3CC3)cc2)C(=O)C(C(=O)NCC(=O)O)=C1O [Ex. 1-302]
UNIT: %
RECORDED RESULT: 61

MOLECULE: Cn1cc(-c2ccc(CN3CCC(O)=C(C(=O)NCC(=O)O)C3=O)cc2)cn1 [Ex. 2-6]
UNIT: %
RECORDED RESULT: 68

MOLECULE: O=C(O)CNC(=O)C1=C(O)C2(CCC2)CN(Cc2ccc(-c3ccccn3)cc2)C1=O [Ex. 1-102]
UNIT: %
RECORDED RESULT: 67

MOLECULE: CC1(C)CC(O)=C(C(=O)NCC(=O)O)C(=O)N1Cc1csc(-c2ccccc2)n1 [Ex. 1-281]
UNIT: %
RECORDED RESULT: 70

* * *

- STUDY TARGET: UniProt Q9GZT9
- EXPERIMENT: Test 1: human PHD2 inhibitory activity, [14C]-2-oxoglutarate to [14C]-succinic acid radiometric assay with HIF-1α peptide
- Assay type: biochemical
- CONDITION DETAILS: test compound's concentration 1 μM; Test 1, [14C]-2-oxoglutarate radiometric assay; read-out: Percent inhibition (% at 1 μM)
The recorded inhibition at 1 µM of each item maps onto one of these classes: lower band: < 70%; central band: ≥ 70% and < 90%; upper band: ≥ 90%

COMPOUND: CC1(C)CC(O)=C(C(=O)NCC(=O)O)C(=O)N1Cc1ccc(Cl)cc1 [Ex. 1-157]
CLASS: lower band
//
COMPOUND: O=C(O)CNC(=O)C1=C(O)CCN(Cc2ccc(Cl)c(OC(F)(F)F)c2)C1=O [Ex. 1-160]
CLASS: central band
//
COMPOUND: O=C(O)CNC(=O)C1=C(O)CC2(CCC2)N(CC2CCC(c3ccccc3)CC2)C1=O (centres unmarked) [Ex. 1-137]
CLASS: central band
//
COMPOUND: Cc1cc(CN2C(=O)C(C(=O)NCC(=O)O)=C(O)CC2(C)C)cc(C)c1OC(F)F [Ex. 1-170]
CLASS: lower band
//
COMPOUND: COc1ccc(-c2ccc(CN3CCC(O)=C(C(=O)NCC(=O)O)C3=O)cc2)cc1 [Ex. 2-12]
CLASS: upper band
//
COMPOUND: CC1(C)CC(O)=C(C(=O)NCC(=O)O)C(=O)N1Cc1ccc(OC(F)F)cc1 [Ex. 1-161]
CLASS: lower band
//
COMPOUND: CC1(C)CC(O)=C(C(=O)NCC(=O)O)C(=O)N1Cc1ccc(OC(F)(F)F)cc1 [Ex. 1-151]
CLASS: lower band
//
COMPOUND: CC1CC(O)=C(C(=O)NCC(=O)O)C(=O)N1CC1CCC(c2ccccc2)CC1 (centres unmarked) [Ex. 1-80]
CLASS: central band
//
COMPOUND: O=C(O)CNC(=O)C1=C(O)CCN(Cc2ccc(OCc3cccc(Cl)c3)cc2)C1=O [Ex. 1-306]
CLASS: upper band
//
COMPOUND: O=C(O)CNC(=O)C1=C(O)CCN(Cc2ccc(C3CCCCC3)cc2)C1=O [Ex. 1-37]
CLASS: central band
//
COMPOUND: O=C(O)CNC(=O)C1=C(O)C2(CC2)CN(Cc2ccc(Cl)cc2)C1=O [Ex. 1-215]
CLASS: central band
//
COMPOUND: CC1CC(O)=C(C(=O)NCC(=O)O)C(=O)N1Cc1ccc(-c2ccc(C(F)(F)F)cc2)cc1 (centres unmarked) [Ex. 1-100]
CLASS: lower band
